system: SNB-78; assay: NCI tumour cell line growth inhibition, 48 h
The source made the active and inactive calls. Cut-off read from the data, not from the text of the source: active = GI50 up to about 1.1 µM and inactive = higher.
parameter: GI50

In the examples that follow, each entry is paired with its recorded GI50.
smilesStructure: COc1cc(C2C(C(=O)Nc3ccc([N+](=O)[O-])cc3)=C(C)NC(C)=C2C(=O)Nc2ccc([N+](=O)[O-])cc2)ccc1O
GI50: 34.8 µM (inactive)

smilesStructure: O=C1NC(=S)NC(=O)C1=Cc1cc2c(cc1[N+](=O)[O-])OCO2
GI50: > 100 µM (inactive)

Given the entry CN(C)CCNC(=O)c1ccccc1Nc1c(Cl)cccc1Cl , what GI50 was observed with SNB-78?
16.4 µM (inactive)

* * *

tested on: M14; experiment: NCI tumour cell line growth inhibition, 48 h
The source made the active and inactive calls. Cut-off read from the data, not from the text of the source: active = GI50 up to about 1.1 µM and inactive = higher.
parameter: GI50

Below, each entry is followed by its recorded GI50 result.
compound: CCOc1ccc(/N=C/c2cccc3cccnc23)cc1
GI50: 44.7 µM (inactive)
--
compound: CC(Oc1ccc2c(=O)cc(-c3ccccc3)oc2c1)C(=O)O (stereo not given)
GI50: > 100 µM (inactive)
--
compound: CCOC1C=CCCO1 (stereo not given)
GI50: > 100 µM (inactive)
--
compound: COc1ccc(C2c3cc4c(cc3OC(O)(CO)C2C(=O)O)OCO4)c(OC)c1OC.COc1ccc(C2c3cc4c(cc3OC3(O)COC(=O)C23)OCO4)c(OC)c1OC (stereo not given)
GI50: > 100 µM (inactive)
--
compound: CSc1c(C#N)c(O)nc(N)c1C(=O)Nc1ccc(C)cc1
GI50: > 100 µM (inactive)
--
compound: CCN(CCCN(CC)C(=O)Nc1c(C)cccc1C)C(=O)Nc1c(C)cccc1C
GI50: > 100 µM (inactive)
--
compound: Cn1cc(C[C@@H](N)C(=O)O)c2ccccc21
GI50: > 100 µM (inactive)
--
compound: CCOC(=O)N1CCN(c2c(N)nc(C)nc2O)CC1
GI50: > 100 µM (inactive)

What value of measured GI50 is listed for Cc1ccccc1NC(=O)Cc1nc2ccccc2s1 ?
12.6 µM (inactive)

# get_value(readout='GI50', item= CN(C)CCCN1c2ccc([N+](=O)[O-])cc2CCc2cccc([N+](=O)[O-])c21 )
13.7 µM (inactive)

* * *

test system: HL-60; assay: NCI tumour cell line growth inhibition, 48 h
The source made the active and inactive calls. No stated cut-off is given here; in the data, active = GI50 up to about 1.1 µM and inactive = higher.
parameter: GI50

# count of solved cases: 4
molecule: Cc1ccsc1C(=S)Nc1ccc(Cl)c(/C=N/OC(C)C)c1
parameter: GI50
reportedValue: 10.3 µM (inactive)
//
molecule: COc1ccc([C@@H]2OC(=O)C3C2C(=O)O[C@H]3c2ccc(OC)c(OC)c2)cc1OC (stereo partly specified)
parameter: GI50
reportedValue: > 100 µM (inactive)
//
molecule: CN(C)c1ccc(N2C(=S)SC(=N\c3ccccc3)/C2=N/c2ccccc2)cc1
parameter: GI50
reportedValue: > 100 µM (inactive)
//
molecule: COc1ccc(C2=C(Cl)c3cc(OC)c(OC)cc3C2OC)cc1OC (stereo unspecified)
parameter: GI50
reportedValue: 8.11 µM (inactive)

Quick one: GI50 of COc1ccc(OC)c2sc(N3C(=O)/C(=C/c4ccccc4S)N=C3c3ccccc3)nc12 ?
26.1 µM (inactive)

Need GI50, item COc1ccc(C2c3cc4c(cc3OC(O)(CO)C2C(=O)O)OCO4)c(OC)c1OC.COc1ccc(C2c3cc4c(cc3OC3(O)COC(=O)C23)OCO4)c(OC)c1OC (stereo unspecified)
45 µM (inactive)

Data origin, for the record: ChEMBL document CHEMBL1201862
